- System: SF-268
- Experiment notes: NCI tumour cell line growth inhibition, 48 h
The source made the active and inactive calls. Rule as the data show it: active = GI50 up to about 1.1 µM and inactive = higher.
Test readout: GI50

q: Could you tell me which GI50 is on file for Cc1ccc(/C=C2\CCCc3ccccc3C2=O)cc1 ?
a: 11.2 µM (inactive)

q: Could you tell me which GI50 is on file for Cc1ccc2nc(N)[nH]c(=O)c2c1Sc1ccncc1 ?
a: 10.5 µM (inactive)

q: Could you tell me which GI50 is on file for CC(NC(=O)C(C)NC(=O)C(N)CCP(C)(=O)O)C(=O)O (centres undefined) ?
a: > 100 µM (inactive)

q: Could you tell me which GI50 is on file for O=C(NCCNCCO)N/N=C/c1ccc(Cl)cc1 ?
a: > 100 µM (inactive)

q: Could you tell me which GI50 is on file for Cc1nn(-c2ccccc2)c(C)c1/C=N/N=C1\S/C(=C\c2ccc(Cl)cc2)C(=O)N1c1ccccc1 ?
a: 51.5 µM (inactive)

q: Could you tell me which GI50 is on file for NC(=S)N/N=C1\CCCC1C(O)(C(F)(F)Cl)C(F)(F)Cl (centres undefined) ?
a: > 10 µM (inactive)

q: Could you tell me which GI50 is on file for O=C(c1ccc(NCN2C(=O)CCC2=O)cc1)c1ccc(NCN2C(=O)CCC2=O)cc1 ?
a: > 100 µM (inactive)

q: Could you tell me which GI50 is on file for N=c1oc2ccc3ccccc3c2cc1C(N)=O ?
a: 31.4 µM (inactive)

q: Could you tell me which GI50 is on file for NC1=NCC(CN2CCOCC2)O1 (centres undefined) ?
a: > 100 µM (inactive)
